- tested system: T1, chimpanzee PSMA, full length, on HEK293F cells (Pan troglodytes (chimpanzee))
- T1 construct: stably transfected HEK293F cells; also called chimp PSMA; chimp-PSMA HEK
- T1 chain: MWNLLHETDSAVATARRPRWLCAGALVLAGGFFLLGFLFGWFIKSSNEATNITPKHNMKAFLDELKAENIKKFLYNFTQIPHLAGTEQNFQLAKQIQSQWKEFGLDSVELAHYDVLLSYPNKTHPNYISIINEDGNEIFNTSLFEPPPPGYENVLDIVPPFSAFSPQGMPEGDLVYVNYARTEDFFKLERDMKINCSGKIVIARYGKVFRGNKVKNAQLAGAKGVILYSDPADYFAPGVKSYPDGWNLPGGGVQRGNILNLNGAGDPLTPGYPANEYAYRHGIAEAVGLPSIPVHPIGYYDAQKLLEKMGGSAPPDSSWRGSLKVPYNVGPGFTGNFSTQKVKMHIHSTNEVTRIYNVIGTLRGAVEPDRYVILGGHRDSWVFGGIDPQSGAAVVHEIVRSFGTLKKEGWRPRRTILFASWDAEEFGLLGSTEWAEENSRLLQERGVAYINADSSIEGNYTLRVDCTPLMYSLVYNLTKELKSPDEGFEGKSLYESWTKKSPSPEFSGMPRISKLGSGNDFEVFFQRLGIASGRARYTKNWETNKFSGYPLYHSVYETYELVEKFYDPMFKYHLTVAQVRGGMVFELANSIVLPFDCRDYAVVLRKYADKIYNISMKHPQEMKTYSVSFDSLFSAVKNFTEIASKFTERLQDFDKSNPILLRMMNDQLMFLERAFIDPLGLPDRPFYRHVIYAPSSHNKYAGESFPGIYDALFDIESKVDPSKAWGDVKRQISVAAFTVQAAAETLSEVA
- measurement description: flow cytometry, Fab supernatant, chimp PSMA HEK cells
quantity: Geo-MFI

[
  {
    "binder": "PSMB49 (Fab, V domains shown, mammalian-expressed Fab supernatant (huG1 Fab and human kappa vectors); also called PSMM50) VH: QVQLVQSGAEVKKPGSSVKVSCKASGGTFSSYAISWVRQAPGQGLEWMGGIIPIFGTANYAQKFQGRVTITADESTSTAYMELSSLRSEDTAVYYCARASRVWHASYGYLDYWGQGTLVTVSS VL: EIVLTQSPATLSLSPGERATLSCRASQSVSKWLAWYQQKPGQAPRLLIYDASNRATGIPARFSGSGSGTDFTLTISSLEPEDFAVYYCQQRFTAPWTFGQGTKVEIK",
    "data value": 22
  },
  {
    "binder": "PSMB55 (Fab, V domains shown, mammalian-expressed Fab supernatant (huG1 Fab and human kappa vectors); also called PSMM56) VH: EVQLVQSGAEVKKPGESLKISCKGSGYSFTSYWIGWVRQMPGKGLEWMGIIYPGDSDTRYSPSFQGQVTISADKSISTAYLQWSSLKASDTAMYYCARGLPIWYLDYWGQGTLVTVSS VL: EIVLTQSPATLSLSPGERATLSCRASQSVASDLAWYQQKPGQAPRLLIYFASNRATGIPARFSGSGSGTDFTLTISSLEPEDFAVYYCQQSITWPFTFGQGTKVEIK",
    "data value": 180
  },
  {
    "binder": "PSMB51 (Fab, V domains shown, mammalian-expressed Fab supernatant (huG1 Fab and human kappa vectors); also called PSMM52) VH: QVQLVQSGAEVKKPGSSVKVSCKASGGTFSSYAISWVRQAPGQGLEWMGWIIPYNGNANYAQKFQGRVTITADESTSTAYMELSSLRSEDTAVYYCARVNSAALVWERLDYWGQGTLVTVSS VL: DIQMTQSPSSLSASVGDRVTITCRASQSIDRWLNWYQQKPGKAPKLLIYAASSLQSGVPSRFSGSGSGTDFTLTISSLQPEDFATYYCQQSPRYPLTFGQGTKVEIK",
    "data value": 231
  },
  {
    "binder": "PSMB109 (Fab, V domains shown, mammalian-expressed Fab supernatant (huG1 Fab and human kappa vectors); also called PSMM110) VH: QVQLVQSGAEVKKPGSSVKVSCKASGGTFSSYAISWVRQAPGQGLEWMGWISPYNGNANYAQKFQGRVTITADESTSTAYMELSSLRSEDTAVYYCARVNSAALVWERLDYWGQGTLVTVSS VL: DIQMTQSPSSLSASVGDRVTITCRASQSIDRWLNWYQQKPGKAPKLLIYAASSLQSGVPSRFSGSGSGTDFTLTISSLQPEDFATYYCQQSPRYPLTFGQGTKVEIK",
    "data value": 326
  }
]
